Test system: Escherichia coli TOP10;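 further: peptides expressed intracellularly from a pBAD plasmid library in pooled LB shake-flask culture, induced with 0.3% L-arabinose, DNA abundance read by NGS, three biological replicates, DESeq2 with apeglm shrinkage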
Assay: shrunken log2 fold change of peptide-encoding DNA abundance (4.5 h post-induction vs induction); higher = less antimicrobial activity (less host growth inhibition)
Conditions: time post-induction: 4.5 h; library: site-saturation at positions 5, 18, 19, 20
Note: every record was labeled by where its shrunken log2 fold change sits among bottom end: < -0.09; midrange: ≥ -0.09 and < 0.01; top end: ≥ 0.01

Tag the class for RRIRYRPPRLPRPRPRPPRIPRP
midrange

Categorize the following entry: RRIRYRPPRLPRPRPRPPDLPRP
bottom end

For RRIRDRPPRLPRPRPRPSDSPRP , which shrunken log2 fold change bin applies?
midrange

GET /class?item= RRIRKRPPRLPRPRPRPDFFPRP
top end

Given RRIRKRPPRLPRPRPRPEPTPRP , name the class its shrunken log2 fold change places it in.
top end

Class label required: RRIRNRPPRLPRPRPRPPDGPRP
top end

Determine which band this sequence sits in: RRIRVRPPRLPRPRPRPLEYPRP
top end

Returns: class label. Input: RRIRMRPPRLPRPRPRPTVVPRP
top end

Which category does the recorded shrunken log2 fold change put RRIRMRPPRLPRPRPRPGSSPRP in?
top end

Looking at RRIRERPPRLPRPRPRPLQKPRP , which class would you pick?
bottom end

Using the reported shrunken log2 fold change, which band applies to RRIRFRPPRLPRPRPRPYCFPRP ?
bottom end

Form: Item = RRIRYRPPRLPRPRPRPDHIPRP ; Class = ?
top end

Class for RRIRERPPRLPRPRPRPNSQPRP ?
bottom end

Bin? RRIRERPPRLPRPRPRPCDFPRP
bottom end

// bin(item) where item = RRIRYRPPRLPRPRPRPTSSPRP
midrange

Categorize the following entry: RRIRWRPPRLPRPRPRPAAGPRP
top end

Which class does RRIRVRPPRLPRPRPRPQMSPRP fall in?
bottom end

Into which bin does this sequence go? RRIRERPPRLPRPRPRPPIQPRP
bottom end

Which category does the recorded shrunken log2 fold change put RRIRDRPPRLPRPRPRPDFEPRP in?
top end

Given RRIRCRPPRLPRPRPRPNIRPRP , name the class its shrunken log2 fold change places it in.
bottom end

Could you tell me which band RRIRERPPRLPRPRPRPMYCPRP belongs to?
midrange

Category of RRIRSRPPRLPRPRPRPNGFPRP :
midrange

# bin lookup: classify RRIRMRPPRLPRPRPRPHDSPRP by its shrunken log2 fold change
midrange

Which shrunken log2 fold change category applies to RRIRCRPPRLPRPRPRPMKFPRP here?
midrange

Note: place this sequence into its band. Item: RRIRQRPPRLPRPRPRPYDEPRP
midrange

Which bin, given its shrunken log2 fold change, does RRIRSRPPRLPRPRPRPVAAPRP occupy?
top end

Band of RRIRTRPPRLPRPRPRPFGQPRP ?
midrange

Which class does RRIRLRPPRLPRPRPRPNMEPRP fall in?
top end

// bin(item) where item = RRIRGRPPRLPRPRPRPTVVPRP
top end

Form field 'band' for RRIRWRPPRLPRPRPRPFQNPRP
bottom end

Which bin should I file RRIRRRPPRLPRPRPRPDCSPRP under?
bottom end

Values compiled from the supplement of paper PMC9112550.
